I'd appreciate it if you could supply pKd values for the items below.
Molecular target: T1, human CD166 protein (human, UniProt Q13740 28-526, limits assumed)
T1 construct: Isolated human CD166 protein coated on ELISA plates; also called ALCAM
T1 sequence (looked up): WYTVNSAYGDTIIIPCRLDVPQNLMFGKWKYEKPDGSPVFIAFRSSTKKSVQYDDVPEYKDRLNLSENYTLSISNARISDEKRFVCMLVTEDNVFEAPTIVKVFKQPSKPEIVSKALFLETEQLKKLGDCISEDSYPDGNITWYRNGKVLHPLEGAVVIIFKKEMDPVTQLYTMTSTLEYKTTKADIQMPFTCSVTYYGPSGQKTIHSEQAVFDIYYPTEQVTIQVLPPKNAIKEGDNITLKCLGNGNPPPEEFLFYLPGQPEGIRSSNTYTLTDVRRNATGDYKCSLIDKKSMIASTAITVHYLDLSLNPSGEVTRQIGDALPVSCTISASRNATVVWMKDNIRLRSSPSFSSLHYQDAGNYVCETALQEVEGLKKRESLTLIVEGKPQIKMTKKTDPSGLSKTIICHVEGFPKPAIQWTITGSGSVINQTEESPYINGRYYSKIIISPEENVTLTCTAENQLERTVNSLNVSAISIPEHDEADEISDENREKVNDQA
Assay: ELISA, human CD166 protein coated; apparent Kd
Give bare numbers, as −log10 of the molar value.

binder="CD166-7614.9-2001 (antibody) chain 1: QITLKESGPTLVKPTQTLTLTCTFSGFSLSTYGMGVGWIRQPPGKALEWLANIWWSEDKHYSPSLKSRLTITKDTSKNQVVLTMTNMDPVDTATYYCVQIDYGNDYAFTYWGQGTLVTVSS chain 2: QGQSGQGLCHPLVLSAAESCSSGGGSSGGSISSGLLSGRSDNHGGGSDIVMTQSPLSLPVTPGEPASISCRSSKSLLHSNGITYLYWYLQKPGQSPQLLIYQMSNLASGVPDRFSGSGSGTDFTLKISRVEAEDVGVYYCAQNLELPYTFGQGTKLEIK" assay_value=6.27

Then this binder:
response.value for CD166-16522.17-2001 (antibody) chain 1: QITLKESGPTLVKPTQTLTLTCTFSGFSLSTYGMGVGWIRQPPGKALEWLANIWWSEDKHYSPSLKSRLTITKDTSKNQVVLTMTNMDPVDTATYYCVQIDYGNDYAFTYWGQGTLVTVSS chain 2: QGQSGQGLEGWCLHALCLWGAGGGGSSGGSISSGLLSGRSDNHGGGSDIVMTQSPLSLPVTPGEPASISCRSSKSLLHSNGITYLYWYLQKPGQSPQLLIYQMSNLASGVPDRFSGSGSGTDFTLKISRVEAEDVGVYYCAQNLELPYTFGQGTKLEIK (field: pKd) = 7.21
